Test system: Staphylococcus aureus
assayMethodText: Antibacterial activity against Staphylococcus aureus ATCC 29213 after 24 hrs by broth dilution method
Format: functional
runParameters: ATCC 29213, 24 h
resultType: log10 of MIC (log10 of the value in µM)

| molecule | log10 of MIC |
| --- | --- |
| CCCCOP(=S)(S)OCCCC.CN1CCC[C@H]1c1cccnc1 | 3.26 |
| CC(C)[C@@H]1CC[C@@H](C)C[C@H]1OP(=S)(S)O[C@@H]1C[C@H](C)CC[C@H]1C(C)C.CN1CCC[C@H]1c1cccnc1 | 1.30 |
| CN1CCC[C@H]1c1cccnc1.Cc1ccc(C(C)C)c(OP(=S)(S)Oc2cc(C)ccc2C(C)C)c1 | 2.51 |
| CN1CCC[C@H]1c1cccnc1.C[C@@H]1[C@@H](OP(=S)(S)O[C@H]2C[C@H]3C[C@@H]([C@@H]2C)C3(C)C)C[C@H]2C[C@@H]1C2(C)C | 1.30 |
| Cc1ccc(C(C)C)c(OP(=S)(S)Oc2cc(C)ccc2C(C)C)c1 | 3.58 |
| Cc1ccc(C(C)C)c(OP(=S)(S)Oc2cc(C)ccc2C(C)C)c1.NC(=O)c1cccnc1 | 2.58 |
| CC1(C)[C@H]2CC[C@](C)(C2)[C@H]1OP(=S)(S)O[C@H]1C(C)(C)[C@H]2CC[C@]1(C)C2.Cc1ncc(CO)c(CO)c1O | 1.30 |
| CC1(C)[C@H]2CC[C@]1(C)[C@H](OP(=S)(S)O[C@@H]1C[C@@H]3CC[C@@]1(C)C3(C)C)C2 | 3.79 |
| Cc1ccc(C(C)C)c(OP(=S)(S)Oc2cc(C)ccc2C(C)C)c1.Cc1ncc(CO)c(CO)c1O | 2.72 |
| CN[C@H](CC(C)C)C(=O)N[C@H]1C(=O)N[C@@H](CC(N)=O)C(=O)N[C@H]2C(=O)N[C@H]3C(=O)N[C@H](C(=O)N[C@H](C(=O)O)c4cc(O)cc(O)c4-c4cc3ccc4O)[C@H](O)c3ccc(c(Cl)c3)Oc3cc2cc(c3O[C@@H]2O[C@H](CO)[C@@H](O)[C@H](O)[C@H]2O[C@H]2C[C@](C)(N)[C@H](O)[C@H](C)O2)Oc2ccc(cc2Cl)[C@H]1O | 0.15 |
| CC1(C)[C@H]2CC[C@](C)(C2)[C@H]1OP(=S)(S)O[C@H]1C(C)(C)[C@H]2CC[C@]1(C)C2 | 2.38 |
| C[C@@H]1[C@@H](OP(=S)(S)O[C@H]2C[C@H]3C[C@@H]([C@@H]2C)C3(C)C)C[C@H]2C[C@@H]1C2(C)C.NC(=O)c1cccnc1 | 2.48 |
| CC(C)[C@@H]1CC[C@@H](C)C[C@H]1OP(=S)(S)O[C@@H]1C[C@H](C)CC[C@H]1C(C)C.Cc1ncc(CO)c(CO)c1O | 1.30 |
